Target: GST-CCNT1 (AA 1–300) (Homo sapiens, UniProt O60563)
Sequence (O60563 1-300): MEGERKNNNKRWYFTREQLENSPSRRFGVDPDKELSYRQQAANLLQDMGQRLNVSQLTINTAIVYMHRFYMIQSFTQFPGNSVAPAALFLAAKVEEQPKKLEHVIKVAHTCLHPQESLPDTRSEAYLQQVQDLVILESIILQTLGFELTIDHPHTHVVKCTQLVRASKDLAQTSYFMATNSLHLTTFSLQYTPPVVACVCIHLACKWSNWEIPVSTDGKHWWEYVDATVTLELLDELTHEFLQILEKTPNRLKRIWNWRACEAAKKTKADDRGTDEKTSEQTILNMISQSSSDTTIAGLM
Assay: AlphaLISA disruption of CCNT1-AFF4 peptide interaction
pKi: −log10 of the molar value.
Property Name: pKi

1) COc1cccc(C(=O)/C=C(\O)C(=O)Nc2cc(Cl)ccc2C)c1 :: 5.46
